// data source = patent US20240270771A1

System: Aβ42
Test: Aβ42 content in culture supernatant of HEK293APP/sw overexpressing cells (ELISA kit)
Type: cell-based
Settings: compound 400 μM, 24 hours, adjusted by total protein concentration, blank control 11.08
Please respond with reported The content of Aβ42 for every item in the list.
Write the number in pmol/L without appending the unit.

Problem: Notebook: pull reported The content of Aβ42 for Aβ42, entry COc1ccc2oc(C(=O)S/C(CCOP(=O)(O)O)=C(/C)N(C=O)Cc3cnc(C)nc3N)cc2c1
Result: 2.31

Problem: Notebook: pull reported The content of Aβ42 for Aβ42, entry C/C(=C(\CCOP(=O)(O)O)SC(=O)c1ccoc1)N(C=O)Cc1cnc(C)nc1N
Result: 10.52

Problem: Notebook: pull reported The content of Aβ42 for Aβ42, entry CCCC(CCC)C(=O)S/C(CCOP(=O)(O)O)=C(/C)N(C=O)Cc1cnc(C)nc1N
Result: 3.32

Problem: Notebook: pull reported The content of Aβ42 for Aβ42, entry C/C(=C(\CCOP(=O)(O)O)SC(=O)c1cc2ccccc2o1)N(C=O)Cc1cnc(C)nc1N
Result: 7.21

Problem: Notebook: pull reported The content of Aβ42 for Aβ42, entry CCC(CC)C(=O)S/C(CCOP(=O)(O)O)=C(/C)N(C=O)Cc1cnc(C)nc1N
Result: 3.34

Problem: Notebook: pull reported The content of Aβ42 for Aβ42, entry C/C(=C(\CCOP(=O)(O)O)SC(=O)c1ccc(Cl)s1)N(C=O)Cc1cnc(C)nc1N
Result: 5.03

Problem: Notebook: pull reported The content of Aβ42 for Aβ42, entry C/C(=C(\CCOP(=O)(O)O)SC(=O)c1ccco1)N(C=O)Cc1cnc(C)nc1N
Result: 2.94

Problem: Notebook: pull reported The content of Aβ42 for Aβ42, entry C/C(=C(\CCOP(=O)(O)O)SC(=O)OCCc1ccccc1)N(C=O)Cc1cnc(C)nc1N
Result: 4.92
